measurement target: HLA-DR DRB1*0301 (human)
experiment notes: competition with 125I-labelled peptide for purified HLA-DR
assay metric: IC50

Notebook: RREVHIYYLEKANKI (modifications not checked) [Flu.PA.127] , IC50 read as > 10 µM
